Reported Kd by item:
PROTOCOL TEXT: Fluorescence titration with fondaparinux
Type: binding
MEASUREMENT PARAMETERS: 1 mM Bis-Tris buffer pH 7.5; read-out: Apparent overall affinity for fond, K D^app ≈ BC50°
READOUT LABEL: Kd (µM)

>  <GIVEN SMILES>
Oc1ccc2ccccc2c1CNCCCNCCCCNCCCNCc1c(O)ccc2ccccc12

>  <UNIT TAG>
µM

>  <VALUE REPORTED>
9.8

$$$$
>  <GIVEN SMILES>
Oc1ccccc1CNCCCNCCCCNCCCNCc1ccc2c(c1)Cc1ccccc1-2

>  <UNIT TAG>
µM

>  <VALUE REPORTED>
4.5

$$$$

Reference for the values: paper PMC12070314
